- EXPERIMENTAL_TARGET: UniProtKB Q9NR96
- Sequence (Q9NR96 26-1032): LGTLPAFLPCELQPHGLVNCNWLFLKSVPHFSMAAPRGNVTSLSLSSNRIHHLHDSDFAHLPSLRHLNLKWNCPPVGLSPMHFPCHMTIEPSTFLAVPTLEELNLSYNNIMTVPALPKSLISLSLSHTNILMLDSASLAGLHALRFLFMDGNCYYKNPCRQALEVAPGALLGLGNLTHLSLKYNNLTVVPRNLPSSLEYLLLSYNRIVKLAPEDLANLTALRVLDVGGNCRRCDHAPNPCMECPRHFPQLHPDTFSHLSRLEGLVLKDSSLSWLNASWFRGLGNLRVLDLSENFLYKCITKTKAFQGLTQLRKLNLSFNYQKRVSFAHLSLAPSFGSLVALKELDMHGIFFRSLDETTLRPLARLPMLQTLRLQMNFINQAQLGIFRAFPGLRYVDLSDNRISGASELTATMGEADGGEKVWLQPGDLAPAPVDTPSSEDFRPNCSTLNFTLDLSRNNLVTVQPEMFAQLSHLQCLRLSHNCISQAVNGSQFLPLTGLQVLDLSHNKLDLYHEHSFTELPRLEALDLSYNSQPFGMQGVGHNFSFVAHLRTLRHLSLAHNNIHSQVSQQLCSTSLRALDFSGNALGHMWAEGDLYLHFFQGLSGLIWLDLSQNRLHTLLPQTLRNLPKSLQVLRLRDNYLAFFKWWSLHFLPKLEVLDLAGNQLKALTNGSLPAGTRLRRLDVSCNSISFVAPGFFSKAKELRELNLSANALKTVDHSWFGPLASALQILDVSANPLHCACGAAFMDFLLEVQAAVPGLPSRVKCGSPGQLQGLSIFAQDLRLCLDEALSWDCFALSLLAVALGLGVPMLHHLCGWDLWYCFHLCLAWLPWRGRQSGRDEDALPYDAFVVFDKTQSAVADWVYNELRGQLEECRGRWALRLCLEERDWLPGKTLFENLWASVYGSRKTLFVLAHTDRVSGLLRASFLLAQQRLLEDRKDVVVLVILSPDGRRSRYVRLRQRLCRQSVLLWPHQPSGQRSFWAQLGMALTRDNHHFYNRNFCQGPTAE
- PROTOCOL_TEXT: HEK293-Blue-hTLR-9 cells assay (SEAP reporter, ODN2006 stimulation)
- Format: cell-based
- Parameters: host or cells: HEK293 (HEK-Blue hTLR9)
- EXPERIMENTAL_CONDITIONS: HEK293-Blue-hTLR9 cells, ODN2006, 20 hrs; read-out: HEK/hTLR9 IC50
Please respond with reported IC50 for every item in the list.

Task: Consider the compound C[C@@H]1CN(c2ccc(C#N)c3ncccc23)C[C@H](CN2CCN(c3cnc(N4CCNCC4)cn3)CC2)O1 [Example 6] . State its measured IC50.
Output: 120 nM

Task: Consider the compound Cc1cnc(N2CCN(C[C@H]3CN(c4ccc(C#N)c5ncccc45)C[C@@H](C)O3)CC2)nc1N1CCNCC1 [Example 102] . State its measured IC50.
Output: 80 nM

Task: Consider the compound Cc1cc(N2CCN(C[C@H]3CN(c4ccc(C#N)c5ncccc45)C[C@@H](C)O3)CC2)nc(N2CC[C@@H](N)C(F)C2)n1 (stereo in doubt) [Example 82] . State its measured IC50.
Output: 56 nM

Task: Consider the compound Cc1cc(N2CCN(C[C@H]3CN(c4ccc(C#N)c5ncccc45)C[C@@H](C)O3)CC2)nc(N2CC(N)C2)n1 [Example 87] . State its measured IC50.
Output: 75 nM

Task: Consider the compound C[C@@H]1CN(c2ccc(C#N)c3ncccc23)C[C@H](CN2CCN(c3ccnc(N4C[C@@H](N)[C@H](F)C4)n3)CC2)O1 [Example 96] . State its measured IC50.
Output: 109 nM

Task: Consider the compound C[C@@H]1CN(c2ccc(C#N)n3ncc(F)c23)C[C@H](CN2CCN(c3ccc(C4CNCCO4)cc3F)CC2)O1 (stereo in doubt) [Example 183] . State its measured IC50.
Output: 120 nM

Task: Consider the compound Cc1ccc(N2C[C@H](CN3CCN(c4ccnc(N5CC6(CNCCO6)C5)n4)CC3)O[C@H](C)C2)c2nccnc12 [Example 126] . State its measured IC50.
Output: 146 nM

Task: Consider the compound COC1CN(c2ccc(N3CCN(C[C@H]4CN(c5ccc(C#N)c6ncccc56)C[C@@H](C)O4)CC3)cn2)CC1N (stereo partly shown) [Example 43] . State its measured IC50.
Output: 119 nM

Task: Consider the compound CO[C@@H]1CN(c2cc(C)nc(N3CCN(C[C@H]4CN(c5ccc(C#N)c6nccnc56)C[C@@H](C)O4)CC3)n2)C[C@@H]1N [Example 120] . State its measured IC50.
Output: 31 nM

Task: Consider the compound C[C@@H]1CN(c2ccc(C#N)n3ncc(F)c23)C[C@H](CN2CCN(c3ccc(C4(C)CNCCO4)cc3)CC2)O1 (stereo partly shown) [Example 185] . State its measured IC50.
Output: 186 nM

Task: Consider the compound CO[C@@H]1CN(c2nc(C)cc(N3CCN(C[C@H]4CN(c5ccc(C#N)c6ncccc56)C[C@@H](C)O4)CC3)n2)C[C@H]1N (single isomer, unassigned) [Example 69B] . State its measured IC50.
Output: 70 nM

Task: Consider the compound CO[C@H]1CN(c2nc(C)cc(N3CCN(C[C@H]4CN(c5ccc(C#N)c6ncccc56)C[C@@H](C)O4)CC3)n2)CC1N (relative stereo) [Example 59] . State its measured IC50.
Output: 32 nM

Task: Consider the compound C[C@@H]1CN(c2ccc(C#N)c3ncccc23)C[C@H](CN2CCN(c3ccnc(N4CCC(N)CC4)n3)CC2)O1 [Example 27] . State its measured IC50.
Output: 43 nM

Source listed as patent US20210395239A1.
